Known cell viability of a selection of molecules
# System: myeloid leukemia patient primary cells Pat.9
# experiment.description: cell viability (% survival relative to DMSO control); higher = less cytotoxic
# condition: 1 nM; 72 h
value.type: cell viability (%)

c1ccc2c(c1)SCc1c-2[nH]c2ccccc12: 91.9
CCCCCCCCCCCCC/C=C/[C@@H](O)[C@H](CO)N(C)C [N,N-Dimethylsphingosine]: 68.4
Oc1ncc(F)c(O)n1 [5-fluorouracil]: 76.6
CN(C)CCNC(=O)c1cccn2c(=O)c3cc4ccccc4cc3nc12 [Bmh-21]: 63
Nc1nc(O)c2c(CCc3ccc(C(=O)N[C@@H](CCC(=O)O)C(=O)O)cc3)c[nH]c2n1 [Pemetrexed]: 94.3

The reported measurements were obtained from the supplement of paper PMC8671470.
